- System: SN12C
- Protocol Text: AUC of dose-response viability curve, drug + dasatinib, normalised to DMSO (arbitrary (AUC of normalised viability)); higher = less growth inhibition
- Settings: treatment: drug + dasatinib (fixed dose, not stated); 5 days
Catalogue of AUC of dose-response viability curve readings, one per entry.
Endpoint: AUC of dose-response viability curve

Compound	Tested On	Observed Value
CC(C)n1nc(-c2cc3cc(O)ccc3[nH]2)c2c(N)ncnc21 [PP242] + Cc1nc(Nc2ncc(C(=O)Nc3c(C)cccc3Cl)s2)cc(N2CCN(CCO)CC2)n1	SN12C	1.74
CC(=O)Nc1nc(C)c(-c2ccc(Cl)c(S(=O)(=O)NCCO)c2)s1 [PIK-93] + Cc1nc(Nc2ncc(C(=O)Nc3c(C)cccc3Cl)s2)cc(N2CCN(CCO)CC2)n1	SN12C	2.14
Cn1cc(-c2ccc3nnc(C(F)(F)c4ccc5ncccc5c4)n3n2)cn1 + Cc1nc(Nc2ncc(C(=O)Nc3c(C)cccc3Cl)s2)cc(N2CCN(CCO)CC2)n1	SN12C	2.34
O=C(NOC[C@H](O)CO)c1ccc(F)c(F)c1Nc1ccc(I)cc1F + Cc1nc(Nc2ncc(C(=O)Nc3c(C)cccc3Cl)s2)cc(N2CCN(CCO)CC2)n1	SN12C	1.75
COc1cc(Nc2c(C#N)cnc3cc(OCCCN4CCN(C)CC4)c(OC)cc23)c(Cl)cc1Cl [Bosutinib (SKI-606)] + Cc1nc(Nc2ncc(C(=O)Nc3c(C)cccc3Cl)s2)cc(N2CCN(CCO)CC2)n1	SN12C	2.24

---

- System: SN12C
- Protocol Text: minimum viability across doses, drug + dasatinib, relative to DMSO (fraction); higher = less growth inhibition
- Settings: treatment: drug + dasatinib (fixed dose, not stated); 5 days
// boundary case: minimum viability across doses equal to 0.5 maps to not satisfied; strictly smaller maps to satisfied

Compound	Tested On	Label Value
Nc1cccc2c1CN(C1CCC(=O)NC1=O)C2=O (centres undefined) [Lenalidomide (Revlimid)] + Cc1nc(Nc2ncc(C(=O)Nc3c(C)cccc3Cl)s2)cc(N2CCN(CCO)CC2)n1	SN12C	not satisfied
Cc1nc(N)sc1-c1ccnc(Nc2ccc(N3CCOCC3)cc2)n1 [CYC116] + Cc1nc(Nc2ncc(C(=O)Nc3c(C)cccc3Cl)s2)cc(N2CCN(CCO)CC2)n1	SN12C	satisfied
Cc1csc(-c2nnc(Nc3ccc(Oc4ncccc4-c4ccnc(N)n4)cc3)c3ccccc23)c1 [AMG 900] + Cc1nc(Nc2ncc(C(=O)Nc3c(C)cccc3Cl)s2)cc(N2CCN(CCO)CC2)n1	SN12C	satisfied
CCc1cccc(CC)c1NC(=O)N1Cc2[nH]nc(NC(=O)c3ccc(N4CCN(C)CC4)cc3)c2C1 + Cc1nc(Nc2ncc(C(=O)Nc3c(C)cccc3Cl)s2)cc(N2CCN(CCO)CC2)n1	SN12C	satisfied
CNC(=O)c1ccccc1Nc1nc(Nc2ccc(N3CCOCC3)cc2OC)ncc1Cl [NVP-TAE226] + Cc1nc(Nc2ncc(C(=O)Nc3c(C)cccc3Cl)s2)cc(N2CCN(CCO)CC2)n1	SN12C	satisfied
COCC[n+]1c2c(n(Cc3cnccn3)c1C)C(=O)c1ccccc1C2=O [YM155] + Cc1nc(Nc2ncc(C(=O)Nc3c(C)cccc3Cl)s2)cc(N2CCN(CCO)CC2)n1	SN12C	satisfied
COc1cccc(-c2cc(=O)c3ccccc3o2)c1N + Cc1nc(Nc2ncc(C(=O)Nc3c(C)cccc3Cl)s2)cc(N2CCN(CCO)CC2)n1	SN12C	not satisfied
CO[C@H]1C[C@@H]2CC[C@@H](C)[C@@](O)(O2)C(=O)C(=O)N2CCCC[C@H]2C(=O)O[C@H]([C@H](C)C[C@@H]2CC[C@@H](O)[C@H](OC)C2)CC(=O)[C@H](C)/C=C(\C)[C@@H](O)[C@@H](OC)C(=O)[C@H](C)C[C@H](C)/C=C/C=C/C=C/1C [Rapamycin (Sirolimus)] + Cc1nc(Nc2ncc(C(=O)Nc3c(C)cccc3Cl)s2)cc(N2CCN(CCO)CC2)n1	SN12C	satisfied
